Parameter: % inhibition, FRET short substrate assay (negative = activation). Scope: all listed entries.
# tested system: human BACE1 ECD (human, UniProt P56817); note: test concentration or dose not given here
# Sequence (P56817 22-457): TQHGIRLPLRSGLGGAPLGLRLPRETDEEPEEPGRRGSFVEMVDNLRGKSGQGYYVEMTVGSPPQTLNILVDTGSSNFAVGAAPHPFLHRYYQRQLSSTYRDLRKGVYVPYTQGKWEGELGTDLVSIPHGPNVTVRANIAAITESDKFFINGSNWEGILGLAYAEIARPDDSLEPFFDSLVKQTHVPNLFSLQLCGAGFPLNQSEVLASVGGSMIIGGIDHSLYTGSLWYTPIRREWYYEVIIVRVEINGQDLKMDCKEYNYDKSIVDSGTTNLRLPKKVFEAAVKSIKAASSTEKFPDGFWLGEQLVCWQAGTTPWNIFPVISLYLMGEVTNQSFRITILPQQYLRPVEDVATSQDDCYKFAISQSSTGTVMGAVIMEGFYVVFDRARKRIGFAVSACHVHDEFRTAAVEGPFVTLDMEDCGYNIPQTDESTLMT
# experiment: cell-based or functional assay
observable: % inhibition, FRET short substrate assay (negative = activation)

>>> reported_value("5874 (antibody, V domains shown) VH: EVQLLESGGGLVQPGGSLRLSCAASGFTFGSYAMSWVRQAPGKGLEWVSATSGSGGSTYYADSVKGRFTISRDNSKNTLYLQMDSLRAEDTAVYYCAKGGSQWLYAPGSWFDPWGQGTLVTVSS VL: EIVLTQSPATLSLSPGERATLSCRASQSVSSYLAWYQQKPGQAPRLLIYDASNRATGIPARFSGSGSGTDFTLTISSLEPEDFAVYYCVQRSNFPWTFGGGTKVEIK")
"37%"
>>> reported_value("5876 (antibody, V domains shown) VH: EVQLLESGGGLVQPGGSLRLSCAASGFTFSSRAMGWVRQAPGKGLEWVSATSGSGGSIYYADSVKGRFTISRDNSKNTLYLQMNSLRAEDTAVYYCAKGGSQWLYAPGSWFDPWGQGTLVTVSS VL: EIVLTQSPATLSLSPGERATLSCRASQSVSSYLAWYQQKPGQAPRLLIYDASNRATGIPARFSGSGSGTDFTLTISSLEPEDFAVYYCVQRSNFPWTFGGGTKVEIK")
"58%"
>>> reported_value("5888 (antibody, V domains shown) VH: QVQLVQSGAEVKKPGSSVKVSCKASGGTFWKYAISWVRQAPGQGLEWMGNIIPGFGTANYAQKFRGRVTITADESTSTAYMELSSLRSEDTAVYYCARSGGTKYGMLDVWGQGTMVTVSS VL: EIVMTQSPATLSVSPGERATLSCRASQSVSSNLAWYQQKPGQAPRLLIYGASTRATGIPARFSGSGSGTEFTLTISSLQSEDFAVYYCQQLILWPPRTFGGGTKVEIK")
"-86%"
